protein stability index by entry:
B1: TRIM35 (parent)
chain: WEVQVSPTCPVCKDRASPADLRTN

Variants of: B1
Assay: protein stability index of a GFP-peptide fusion (GPS, HEK-293T) (PSI 1-6); higher = more stable;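 also: lentivirally expressed fusions sorted by FACS into six bins by GFP to DsRed ratio, PSI derived from sequencing read proportions per bin multiplied by bin number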
Conditions: c terminus: a fixed tail appended

mutation-annotation	protein stability index
T23L	3.09
S17W	3.4
S6H	3.03
P7G	3.03
C9L	1.98
D20H	1.66
P10C	3.25
Q4S	1.87
V3K	2.83
V5D	4.04
C12F	3.29
